System: NCI/ADR-RES ovarian
Experiment: NCI tumour cell line growth inhibition, 48 h
Quick reference: TGI of the listed items.

compound: C1CN2CCNCCN(CCN1)CC2
TGI: > 100 µM
//
compound: C/C(Cc1ccc2c(c1)OCO2)=N\NC(=O)C(C)Sc1nnc(SC(C)C(=O)N/N=C(\C)Cc2ccc3c(c2)OCO3)s1 (stereo unspecified)
TGI: > 100 µM
//
compound: COc1cccc(/C=C\c2ccc(O)cc2)c1
TGI: 31.7 µM
//
compound: COc1cccc(-c2c(-c3ccccc3)[nH]c(C)c2C(=O)ONC(=O)c2ccccc2)c1
TGI: 26 µM
//
compound: COc1cc2ccc1OCc1cccc(n1)COc1ccc(cc1OC)C=NCCNCCN=C2
TGI: > 100 µM
//
compound: CSc1ccc(C(=O)/C=C/c2ccccc2Cl)cc1
TGI: 40.1 µM
//
compound: Cc1cc(=O)oc2cc(OC/C=C3\CCC(=O)O3)ccc12
TGI: 82.9 µM
//
compound: S=C(N1CCN(c2ccccc2)CC1)N1CCN(c2ccccc2)CC1
TGI: > 100 µM
//
compound: CC1(C)N=C(N)N=C(N)N1c1cccc(Br)c1
TGI: > 100 µM
//
compound: CN(C)c1ccc(/C=C/c2cc(-c3ccccc3)[n+](C)n2-c2ccccc2)cc1
TGI: > 100 µM
//
compound: O=c1c2c(F)c(F)c(F)c(F)c2sc2nccn12
TGI: 93.3 µM
//
compound: O=C1CCCc2ccc3c(c21)CC1(Cc2ccccc2C1)C3
TGI: > 100 µM
//
compound: CCCCCCCCC/C=C1/CC(CO)(COC(=O)c2ccccc2)OC1=O (stereo unspecified)
TGI: 28.8 µM
//
compound: Cc1cc2nc(N3C(=O)/C(=C/c4ccc(N(C)C)cc4)N=C3c3ccccc3)sc2cc1C
TGI: > 100 µM
//
compound: COc1cc(/C=N/NC2=NCCCCN2)ccc1O
TGI: > 100 µM
//
compound: COc1cc2c(cc1C)NC(=O)/C2=C\c1c[nH]c2ccccc12
TGI: 47.6 µM
//
compound: Cc1ccc(S(=O)(=O)Nc2ccc(-c3cc(-c4cccc(F)c4)c(C#N)c(N)n3)cc2)cc1
TGI: 10.8 µM
//
compound: CC[C@@]1(CCC(=O)NCCc2c[nH]c3ccccc23)CCC(=O)N2CCc3c([nH]c4ccccc34)[C@H]21
TGI: 33.4 µM
//
compound: CN(C)CCOC(=O)Nc1nc2ccc(Sc3ccccc3)cc2[nH]1
TGI: 9.65 µM
//
compound: O=[N+]([O-])C(=C/c1cccs1)/C(=C\c1cccs1)[N+](=O)[O-]
TGI: 5.4 µM
//
compound: COc1cc(/C=C2\C[C@H]3[C@@H]4CC=C5C[C@@H](OC(C)=O)CC[C@]5(C)[C@H]4CC[C@]3(C)[C@H]2OC(C)=O)ccc1OCCN1CCCC1
TGI: 20.6 µM
//
compound: CCCNC(=O)N(C)C(=O)N1N=C(c2ccccc2)C1c1ccccc1 (stereo unspecified)
TGI: > 100 µM
//
compound: COc1ccc(/C(=N\Nc2ccccn2)c2ccccn2)cc1
TGI: 0.0475 µM
//
compound: Cn1c(=O)c(Cl)c(N=[N+]=[N-])c2ccccc21
TGI: > 100 µM
//
compound: Cc1ccc(N2C(N)=C(C#N)C(C#N)(C#N)C2c2ccccc2)cc1 (stereo unspecified)
TGI: 36.1 µM
//
compound: O=C1CC2SC(COCc3ccccc3)(CCN2Cc2ccccc2)C1 (stereo unspecified)
TGI: > 100 µM
//
compound: CCCCc1c2c(c(C)c3c1C(=O)OC3)Oc1ccccc1O2
TGI: 20.5 µM
//
compound: CCn1ccc(NS(=O)(=O)c2ccc(N)cc2)nc1=O
TGI: > 100 µM
//
compound: Fc1ccc(Nc2nc3ccccc3c3occc23)cc1
TGI: 13 µM
//
compound: Cc1cccc2c1c(=O)c1c(O)cc(O)cc1n2C
TGI: > 100 µM
//
compound: COc1cc(/C=C/C(=O)c2c(C)nc3ccccc3c2C)ccc1OCCCN1CCN(C(=O)c2ccco2)CC1
TGI: 45.2 µM
//
compound: CCOC(=O)C(CCc1ncnc2c1ncn2Cc1ccccc1)(CCc1ncnc2c1ncn2Cc1ccccc1)C(=O)OCC
TGI: > 100 µM
//
compound: COC(=O)C1=C(CCC[C@H](C)O[Si](C)(C)C(C)(C)C)NC(=O)N2[C@@H](CCO)CC[C@H]12
TGI: 29.1 µM
//
compound: O=c1oc2ccc([N+](=O)[O-])cc2cc1Br
TGI: > 100 µM
//
compound: COc1ccc(C(=O)/C=C/c2ccc(OCC(=N)N)cc2)cc1
TGI: 72 µM
//
compound: O=c1c(Cl)cc2nc3ccccc3sc-2c1Cl
TGI: 56.9 µM

---

Quick reference: TGI of the listed items.
Test system: CCRF-CEM leukemia
Assay: NCI tumour cell line growth inhibition, 48 h
measurement.kind: TGI

compound: O=C1C(S(=O)(=O)c2ccccc2)=C(CS(=O)(=O)c2ccccc2)[C@@H](OCc2ccccc2)[C@@H]1OCc1ccccc1
endpoint.value: 42.7 µM
--
compound: CCCCc1c2c(c(C)c3c1C(=O)OC3)Oc1ccccc1O2
endpoint.value: > 100 µM
--
compound: Cn1c(=O)c(Cl)c(N=[N+]=[N-])c2ccccc21
endpoint.value: > 100 µM
--
compound: Cc1ccc(-c2cc(-c3ccco3)c(C#N)c(=O)n2C2OC(CO)C(O)C(O)C2O)cc1 (stereo unspecified)
endpoint.value: > 100 µM
--
compound: COc1cccc(NC(=O)C(=O)C2C=CCS2(=O)=O)c1 (stereo unspecified)
endpoint.value: > 100 µM
--
compound: Cc1ccc(S(=O)(=O)Nc2ccc(-c3cc(-c4cccc(F)c4)c(C#N)c(N)n3)cc2)cc1
endpoint.value: 30.8 µM
--
compound: CN(CCCn1ccnc1[N+](=O)[O-])CCCn1ccnc1[N+](=O)[O-]
endpoint.value: > 100 µM
--
compound: Cc1ccc(S(=O)(=O)N2CCc3ccc(O)c4c3C2Cc2ccc3c(c2-4)OCO3)cc1 (stereo unspecified)
endpoint.value: > 27.6 µM
--
compound: O=C(O[C@H]1CCN2C[C@H]3C[C@H](CN4C(=O)CCC[C@H]34)[C@@H]2C1)c1ccc(O)cc1
endpoint.value: > 100 µM
--
compound: CCCN1CCC(c2ccc(Nc3nc(Nc4cc(F)ccc4C(N)=O)c4cc[nH]c4n3)c(OC)c2)CC1
endpoint.value: 20.3 µM
--
compound: CCN(Cc1ccc(F)cc1)c1ccc(CO)c(OC)c1
endpoint.value: 72 µM
--
compound: O=[N+]([O-])c1ccc(Sc2ccncn2)c([N+](=O)[O-])c1
endpoint.value: 6.13 µM
--
compound: CCCN(CCC)C1=Nc2ccccc2-n2cnnc2C1
endpoint.value: > 100 µM
--
compound: c1ccc([P+](CCCCCC[P+](c2ccccc2)(c2ccccc2)c2ccccc2)(c2ccccc2)c2ccccc2)cc1
endpoint.value: > 100 µM
--
compound: CC(C)CCCC(C)[C@H]1CC[C@H]2N=C(NCc3ccccc3)CCC[C@]12C (stereo partly specified)
endpoint.value: 5.42 µM
--
compound: CC(=O)Nc1ccc(Sc2nnc(NC(C)=O)s2)cc1
endpoint.value: > 100 µM
--
compound: O=c1c2c(F)c(F)c(F)c(F)c2sc2nccn12
endpoint.value: 29.6 µM
--
compound: C1C[OH+]CC[OH+]CCNCC[OH+]CC[OH+]CCN1.Cl.[Cl-].[Pt+4]
endpoint.value: > 100 µM
--
compound: N#CC1C(=O)NC(c2ccccc2[N+](=O)[O-])c2sc3c(F)cccc3c21 (stereo unspecified)
endpoint.value: > 87.4 µM
--
compound: Nc1ccc(Sc2c3ccccc3nc3ccccc23)cc1
endpoint.value: 30.2 µM
--
compound: CC(=O)/C(C=Nc1c(C)n(C)n(C)c1=O)=C(/O)c1ccccc1
endpoint.value: > 50 µM

---

System: SF-539 CNS
Assay: NCI tumour cell line growth inhibition, 48 h
Quick reference: TGI of the listed items.

molecule: O=c1oc2ccc([N+](=O)[O-])cc2cc1Br
TGI: > 100 µM
--
molecule: CSCCC(C(=O)O)N(CC1(O)OCC(O)C(O)C1O)N=O (configuration not stated)
TGI: > 100 µM
--
molecule: CCOC(=O)C(CCc1ncnc2c1ncn2Cc1ccccc1)(CCc1ncnc2c1ncn2Cc1ccccc1)C(=O)OCC
TGI: 94.6 µM
--
molecule: CCOC(=O)C1(Br)S(=O)(=O)OCCOS1(=O)=O
TGI: > 100 µM
--
molecule: O=C1/C(=C/c2ccc(Cl)cc2)CSC/C1=C\c1ccc(Cl)cc1
TGI: 9.26 µM
--
molecule: CCN(CC)CCNc1ccc2nc(C)n3c4ccc(O)cc4c(=O)c1c23
TGI: 16.2 µM
--
molecule: CCOC(=O)C(=O)NC12CC3CC(CC(C3)C1)C2
TGI: > 100 µM

---

Tested on: KM12 colon
Test: NCI tumour cell line growth inhibition, 48 h; in the data active = GI50 below about 0.43 µM; inactive = the rest
Labels: active, inactive

compound: [CH3][Sn]([CH3])([CH3])[O][N+](=O)[O-]
label.value: inactive
//
compound: C[C@@H](Oc1cc(-n2cnc3ccc(OC[C@@H](O)CO)cc32)sc1C(N)=O)c1ccccc1Cl
label.value: active
//
compound: CSc1ccc(C(=O)/C=C/c2ccccc2Cl)cc1
label.value: inactive
//
compound: N#CC1C(=O)NC(c2ccccc2[N+](=O)[O-])c2sc3c(F)cccc3c21 (configuration not stated)
label.value: inactive
//
compound: CCN(Cc1ccc(F)cc1)c1ccc(CO)c(OC)c1
label.value: inactive
//
compound: COC(=O)[C@]12CC[C@@H](C)[C@H](C)[C@@H]1C1=CC[C@@H]3[C@@]4(C)C(C=O)=C[C@@](C)(COC(=O)/C=C/c5ccccc5)[C@@H]4[C@H](O)C[C@@]3(C)[C@]1(C)CC2
label.value: inactive
//
compound: COc1cccc2c1C(=O)c1c(O)c3c(c(O)c1C2=O)C[C@@](O)(C(=O)CO)CC3OC1CC(NCCCC(OC(C)=O)OC(C)=O)C(O)C(C)O1 (some centres not stated)
label.value: active
//
compound: COc1cnc2c(c1)C(=O)c1c-2n(CCCN2CCNCC2)c(=O)c2cc([N+](=O)[O-])ccc12
label.value: active
//
compound: Cc1ccc(OCC2OC(n3cnc4c(Br)nc(Br)nc43)CC2Oc2ccc(C)cc2)cc1 (configuration not stated)
label.value: inactive
//
compound: CN(C)CCNC(=O)NC[C@H]1CC[C@@H]2[C@H](O1)c1cc(C(F)(F)F)ccc1N[C@H]2c1ccccc1
label.value: active
//
compound: COc1cc(/C=C2\C[C@H]3[C@@H]4CC=C5C[C@@H](OC(C)=O)CC[C@]5(C)[C@H]4CC[C@]3(C)[C@H]2OC(C)=O)ccc1OCCN1CCCC1
label.value: inactive
//
compound: Cc1cc(Cl)cc(Cc2cc(Cl)cc(C)c2O)c1O
label.value: inactive
